systemUnderTest: D(1A) dopamine receptor (Homo sapiens)
Sequence (P21728 whole entry): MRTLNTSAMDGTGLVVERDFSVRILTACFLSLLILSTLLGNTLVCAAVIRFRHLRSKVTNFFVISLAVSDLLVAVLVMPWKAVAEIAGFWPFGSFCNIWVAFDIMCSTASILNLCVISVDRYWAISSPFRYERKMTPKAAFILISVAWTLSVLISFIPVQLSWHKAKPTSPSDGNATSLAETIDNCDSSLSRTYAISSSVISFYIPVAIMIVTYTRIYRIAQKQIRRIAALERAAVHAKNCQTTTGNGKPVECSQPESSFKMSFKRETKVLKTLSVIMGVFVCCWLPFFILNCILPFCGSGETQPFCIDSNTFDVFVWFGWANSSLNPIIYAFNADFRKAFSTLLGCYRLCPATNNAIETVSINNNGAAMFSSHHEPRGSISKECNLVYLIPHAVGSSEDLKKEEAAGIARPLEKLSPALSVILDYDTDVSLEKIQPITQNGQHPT
testProtocol: GPCRScan assay: inhibition of D1
Parameters: radioligand conc. used [nm] 0.6 – 1.3, parental cells HEKT
appliedConditions: read-out: Ki
pKi: −log10 of the molar value.
recordedMetric: pKi

| compound | experimentalResult |
| --- | --- |
| CN1CCN(C(=O)C(C)(C)c2ccc(C(=O)Nc3cn4cc(-c5cc(C(C)(C)C)cc(C(C)(C)C)c5)ccc4n3)cc2)CC1 [T3-CLK-N] | 5.82 |

* * *

systemUnderTest: Sigma non-opioid intracellular receptor 1 (Homo sapiens, UniProt Q99720)
Sequence (Q99720 whole entry): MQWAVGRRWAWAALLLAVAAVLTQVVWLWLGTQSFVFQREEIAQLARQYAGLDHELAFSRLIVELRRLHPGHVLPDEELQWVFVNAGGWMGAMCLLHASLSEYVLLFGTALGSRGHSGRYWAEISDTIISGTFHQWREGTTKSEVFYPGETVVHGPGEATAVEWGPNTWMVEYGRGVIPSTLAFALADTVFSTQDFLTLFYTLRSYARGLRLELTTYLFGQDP
testProtocol: GPCRScan assay: inhibition of Sigma 1
Design: radioligand conc. used [nm] 4.0 – 5.0, parental cells HEKT
appliedConditions: read-out: Ki
recordedMetric: Ki (nM)

| molecule | unitsSymbol | experimentalResult |
| --- | --- | --- |
| CN1CCN(C(=O)C(C)(C)c2ccc(C(=O)Nc3cn4cc(-c5cc(C(C)(C)C)cc(C(C)(C)C)c5)ccc4n3)cc2)CC1 [T3-CLK-N] | nM | 798 |

* * *

systemUnderTest: Alpha-1A adrenergic receptor (Homo sapiens)
Sequence (P35348 whole entry): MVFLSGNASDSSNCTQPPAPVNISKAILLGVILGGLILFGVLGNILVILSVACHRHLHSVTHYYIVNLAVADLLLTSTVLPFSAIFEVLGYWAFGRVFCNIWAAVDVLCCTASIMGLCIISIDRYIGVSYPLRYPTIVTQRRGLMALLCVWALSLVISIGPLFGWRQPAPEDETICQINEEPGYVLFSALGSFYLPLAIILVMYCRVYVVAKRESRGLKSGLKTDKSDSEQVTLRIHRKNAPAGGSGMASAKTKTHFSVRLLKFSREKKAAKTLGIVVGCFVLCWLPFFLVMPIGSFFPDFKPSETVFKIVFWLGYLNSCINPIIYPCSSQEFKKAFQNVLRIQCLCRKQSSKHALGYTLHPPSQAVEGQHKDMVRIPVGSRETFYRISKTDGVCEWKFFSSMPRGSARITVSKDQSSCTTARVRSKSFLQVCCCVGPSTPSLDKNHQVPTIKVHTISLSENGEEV
testProtocol: GPCRScan assay: inhibition of Alpha1A
Parameters: radioligand conc. used [nm] 0.2 - 1.0, parental cells stable HEK
appliedConditions: read-out: Ki
pKi: −log10 of the molar value.

| structureString | systemUnderTest | pKi |
| --- | --- | --- |
| CN1CCN(C(=O)C(C)(C)c2ccc(C(=O)Nc3cn4cc(-c5cc(C(C)(C)C)cc(C(C)(C)C)c5)ccc4n3)cc2)CC1 | Alpha-1A adrenergic receptor (Homo sapiens) | 5.86 |

* * *

systemUnderTest: 5-hydroxytryptamine receptor 2A (Homo sapiens, UniProt P28223)
Sequence (P28223 whole entry): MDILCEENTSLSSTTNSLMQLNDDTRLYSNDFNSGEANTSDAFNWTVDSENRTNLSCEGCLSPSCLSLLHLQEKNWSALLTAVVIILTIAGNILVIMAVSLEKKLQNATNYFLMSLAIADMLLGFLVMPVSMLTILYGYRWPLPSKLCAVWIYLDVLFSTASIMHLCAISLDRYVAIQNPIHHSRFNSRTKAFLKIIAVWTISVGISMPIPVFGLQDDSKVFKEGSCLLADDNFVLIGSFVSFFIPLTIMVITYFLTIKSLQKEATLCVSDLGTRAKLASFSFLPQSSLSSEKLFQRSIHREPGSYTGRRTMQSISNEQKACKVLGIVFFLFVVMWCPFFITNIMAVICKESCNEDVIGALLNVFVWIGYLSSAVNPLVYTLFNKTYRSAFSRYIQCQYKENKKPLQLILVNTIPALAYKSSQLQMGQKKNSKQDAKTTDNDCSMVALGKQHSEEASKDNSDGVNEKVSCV
testProtocol: GPCRScan assay: inhibition of 5-HT2A
Design: radioligand conc. used [nm] 1.2 – 2.4, parental cells HEKT
appliedConditions: read-out: Ki
pKi: −log10 of the molar value.
recordedMetric: pKi

| structureString | experimentalResult |
| --- | --- |
| CN1CCN(C(=O)C(C)(C)c2ccc(C(=O)Nc3cn4cc(-c5cc(C(C)(C)C)cc(C(C)(C)C)c5)ccc4n3)cc2)CC1 | 5.82 |

* * *

systemUnderTest: UniProt P18089
Sequence (P18089 whole entry): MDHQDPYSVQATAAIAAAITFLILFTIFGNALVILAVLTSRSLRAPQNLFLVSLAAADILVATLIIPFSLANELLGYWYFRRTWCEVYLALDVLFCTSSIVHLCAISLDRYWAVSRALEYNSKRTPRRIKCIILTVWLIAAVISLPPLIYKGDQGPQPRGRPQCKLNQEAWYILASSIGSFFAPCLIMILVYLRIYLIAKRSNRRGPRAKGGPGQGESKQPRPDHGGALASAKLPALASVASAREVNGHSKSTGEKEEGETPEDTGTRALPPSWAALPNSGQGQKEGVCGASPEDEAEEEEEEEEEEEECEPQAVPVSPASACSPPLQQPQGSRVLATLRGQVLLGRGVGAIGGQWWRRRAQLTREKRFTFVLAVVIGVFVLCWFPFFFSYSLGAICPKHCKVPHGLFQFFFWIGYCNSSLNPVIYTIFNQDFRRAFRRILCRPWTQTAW
testProtocol: GPCRScan assay: inhibition of Alpha2B
Set-up: radioligand conc. used [nm] 1.5 – 2.0, parental cells HEKT
appliedConditions: read-out: Ki
pKi: −log10 of the molar value.

| structureString | systemUnderTest | pKi |
| --- | --- | --- |
| CN1CCN(C(=O)C(C)(C)c2ccc(C(=O)Nc3cn4cc(-c5cc(C(C)(C)C)cc(C(C)(C)C)c5)ccc4n3)cc2)CC1 | UniProt P18089 | 5.78 |
